Listed compounds paired with reported melting point

Check out these entries, answers already filled in.
O=C(O)c1ccc(Nc2ncnc3ccccc23)cc1 : 345 to 347 °C
CC(C)c1ccc(C=NO)cc1 : 64 to 66 °C
O=C(O)C1CCN(c2ccc3cccc(O)c3n2)CC1 : 281 to 283 °C
O=C(O)c1ccnc(C2CC2)n1 : 218 to 220 °C
CSC(=NS(C)(=O)=O)SC : 88 to 90 °C
O=S(=O)(Cl)c1csc(-c2ccc(Cl)cc2)n1 : 93 to 95 °C

Query: melting point; subject: `Ic1n[nH]c2ccsc12` 174 to 176 °C

Now this one: `COc1ccc(Br)cc1Cc1nnn[nH]1` 180 to 182 °C

Also, `N#Cc1cc([N+](=O)[O-])cnc1Cl` please. 119 to 121 °C

Input `O=C(O)c1cccc(-n2ccc(C(F)(F)F)n2)c1` 159 to 161 °C

# iterate: `O=C(O)CS(=O)(=O)Cc1ccc(Br)cc1` 156 to 158 °C
